From: patent US11925616B2

- experiment description: in vivo
- Set-up: species or system male Sprague-Dawley rats
- condition summary: male, Sprague-Dawley, rat, po, 25 mg/kg, AUC
measured quantity: AUC (ng·h/mL)
Respond with the bare value in ng·h/mL.

IN: Name the recorded AUC for O=c1oc2cc(O)ccc2c2ccc(O)cc12 [Sample #1, Urolithin A] .
OUT: 75.1
